Can you tell me IC50 for the items I'm about to list?
System: MDA-MB-231
Assay: Antiproliferative activity against human MDA-MB-231 cells assessed as reduction in cell viability incubated for 72 hrs by MTT assay
Assay type: functional, cell-based
Settings: MDA-MB-231, 72 h
Kindly provide the numeric value in nM only, without the unit symbol.

Recorded result, `Cc1ccc(NC(=O)c2cc(F)cc(C(F)(F)F)c2)cc1C#Cc1nn(C2CCN(C)CC2)c2ncnc(N)c12` , IC50: 671

Kindly note the recorded IC50 for `CN1CCC(n2nc(C#Cc3cccc(NC(=O)c4cccc(C(F)(F)F)c4)c3)c3c(N)ncnc32)CC1` , which is 597

IC50 reading for `Cc1ccc(NC(=O)c2cccc(Cl)c2)cc1C#Cc1nn(C2CCN(C)CC2)c2ncnc(N)c12` : 60

For reference, reported IC50 for `Cc1cccc(C(=O)Nc2ccc(C)c(C#Cc3nn(C4CCN(C)CC4)c4ncnc(N)c34)c2)c1` stands at 133

###

Target: Platelet-derived growth factor receptor alpha (Homo sapiens)
Sequence (P16234 whole entry): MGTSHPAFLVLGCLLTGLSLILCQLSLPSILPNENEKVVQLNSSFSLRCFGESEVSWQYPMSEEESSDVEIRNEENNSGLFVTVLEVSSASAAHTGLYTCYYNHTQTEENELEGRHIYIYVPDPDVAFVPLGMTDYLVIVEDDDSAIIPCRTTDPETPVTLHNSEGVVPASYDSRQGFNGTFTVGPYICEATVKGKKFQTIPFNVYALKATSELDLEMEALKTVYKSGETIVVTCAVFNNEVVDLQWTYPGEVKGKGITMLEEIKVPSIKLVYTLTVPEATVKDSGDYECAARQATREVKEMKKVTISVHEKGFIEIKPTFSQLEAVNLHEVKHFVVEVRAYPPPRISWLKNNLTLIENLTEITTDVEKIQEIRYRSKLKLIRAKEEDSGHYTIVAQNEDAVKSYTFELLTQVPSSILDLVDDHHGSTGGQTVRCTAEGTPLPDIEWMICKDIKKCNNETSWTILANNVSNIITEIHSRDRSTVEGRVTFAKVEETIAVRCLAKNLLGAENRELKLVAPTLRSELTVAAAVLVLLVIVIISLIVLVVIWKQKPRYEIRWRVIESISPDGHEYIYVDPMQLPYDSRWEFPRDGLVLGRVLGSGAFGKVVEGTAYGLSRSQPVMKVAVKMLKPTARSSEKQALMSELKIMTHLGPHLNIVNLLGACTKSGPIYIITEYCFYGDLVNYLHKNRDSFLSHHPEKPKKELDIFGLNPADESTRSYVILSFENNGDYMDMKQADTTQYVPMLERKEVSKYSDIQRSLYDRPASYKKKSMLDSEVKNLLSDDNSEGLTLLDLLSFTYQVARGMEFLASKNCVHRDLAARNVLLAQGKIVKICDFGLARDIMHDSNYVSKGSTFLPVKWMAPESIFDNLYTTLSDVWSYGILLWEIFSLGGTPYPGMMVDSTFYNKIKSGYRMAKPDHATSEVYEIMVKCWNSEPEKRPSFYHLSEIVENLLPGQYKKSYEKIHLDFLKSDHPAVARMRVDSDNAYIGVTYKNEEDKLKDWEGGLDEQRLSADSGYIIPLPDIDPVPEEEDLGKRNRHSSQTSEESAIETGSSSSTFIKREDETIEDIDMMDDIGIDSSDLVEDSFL
Assay: Inhibition of human recombinant PDGFRalpha (550 to end residues) using poly(Glu, Tyr)4:1 as substrate incubated for 40 mins in presence of [gamma33P-ATP] by radiometric scintillation counting analysis
Assay endpoint: pIC50
Would you please state pIC50, meaning minus log10 of the concentration in mol/L, as a bare number?

Lookup result for `Cc1ccc(NC(=O)c2ccc(C)c(C(F)(F)F)c2)cc1C#Cc1nn([C@H]2CC[C@H](O)CC2)c2ncnc(N)c12` ; measured pIC50: 5.89

###

Tested on: NCI-H1437
Assay: Antiproliferative activity against human NCI-H1437 cells assessed as reduction in cell viability incubated for 72 hrs by MTT assay
Assay type: functional, cell-based
Details: NCI-H1437, 72 h
Assay endpoint: pIC50
pIC50 (log units): -log10 of the concentration in mol/L.

The reported value for `Cc1ccc(NC(=O)c2ccc(C)c(C(F)(F)F)c2)cc1C#Cc1nn([C@H]2CC[C@H](O)CC2)c2ncnc(N)c12` in terms of pIC50 is 5.63

###

Biological target: Ephrin type-A receptor 4 (Homo sapiens)
Sequence (P54764 whole entry, the tested form may be a part): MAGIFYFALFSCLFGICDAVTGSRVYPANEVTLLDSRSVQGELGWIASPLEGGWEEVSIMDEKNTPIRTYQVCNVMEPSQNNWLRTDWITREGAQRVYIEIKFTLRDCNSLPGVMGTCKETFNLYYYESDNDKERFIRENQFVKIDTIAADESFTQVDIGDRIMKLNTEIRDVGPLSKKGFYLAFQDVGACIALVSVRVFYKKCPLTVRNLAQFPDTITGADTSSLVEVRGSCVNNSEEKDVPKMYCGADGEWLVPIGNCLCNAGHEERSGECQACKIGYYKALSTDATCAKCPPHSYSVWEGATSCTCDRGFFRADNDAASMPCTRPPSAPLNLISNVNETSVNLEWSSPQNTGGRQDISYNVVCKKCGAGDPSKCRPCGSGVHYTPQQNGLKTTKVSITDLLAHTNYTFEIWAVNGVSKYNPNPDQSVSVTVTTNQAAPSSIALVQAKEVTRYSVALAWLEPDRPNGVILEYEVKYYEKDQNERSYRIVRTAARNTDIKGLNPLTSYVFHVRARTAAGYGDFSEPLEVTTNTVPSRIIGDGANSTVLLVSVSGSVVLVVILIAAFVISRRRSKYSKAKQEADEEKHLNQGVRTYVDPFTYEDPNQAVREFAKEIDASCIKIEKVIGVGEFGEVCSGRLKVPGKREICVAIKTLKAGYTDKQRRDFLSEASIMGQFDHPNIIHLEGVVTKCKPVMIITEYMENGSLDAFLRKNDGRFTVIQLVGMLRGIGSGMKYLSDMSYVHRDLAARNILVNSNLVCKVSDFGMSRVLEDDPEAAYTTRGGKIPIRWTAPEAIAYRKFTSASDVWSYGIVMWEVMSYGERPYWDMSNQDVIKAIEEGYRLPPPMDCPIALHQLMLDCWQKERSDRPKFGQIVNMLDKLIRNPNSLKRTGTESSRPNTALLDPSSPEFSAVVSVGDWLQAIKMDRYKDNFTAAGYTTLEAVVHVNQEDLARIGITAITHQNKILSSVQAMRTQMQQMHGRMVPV
Assay: Inhibition of human recombinant EPHA4 (601 to 892 residues) using poly(Glu,Tyr)4:1 as substrate incubated for 40 mins in presence of [gamma33P-ATP] by radiometric scintillation counting analysis
Assay endpoint: IC50 (nM)
Dear colleague, please return just the value in nM, with no unit written.

Documented IC50 of `Cc1ccc(NC(=O)c2ccc(C)c(C(F)(F)F)c2)cc1C#Cc1nn([C@H]2CC[C@H](O)CC2)c2ncnc(N)c12` : 227

###

Experiment: Metabolic stability in human liver microsomes assessed as parent compound remaining at 1 uM measured after 60 mins in presence of NADPH by HPLC-MS/MS analysis
Type: ADME, Microsome
Settings: read-out: Stabilty
Assay endpoint: remaining at 1 h, 1 µM

// remaining at 1 h, 1 µM lookup, molecule = `Cc1ccc(NC(=O)c2ccc(C)c(C(F)(F)F)c2)cc1C#Cc1nn([C@H]2CC[C@H](O)CC2)c2ncnc(N)c12` , result: > 90%

###

Tested on: L929
Test: Cytotoxicity against mouse L929 cells assessed as reduction in cell viability incubated for 72 hrs by MTT assay
Format: cell-based
Conditions: L929, 72 h
Assay endpoint: IC50

So, `Cc1ccc(NC(=O)c2ccc(C)c(C(F)(F)F)c2)cc1C#Cc1nn([C@H]2CC[C@H](O)CC2)c2ncnc(N)c12` ? Its IC50 was > 10 µM

###

Assay: Metabolic stability in mouse liver microsomes assessed as parent compound remaining at 1 uM measured after 60 mins in presence of NADPH by HPLC-MS/MS analysis
Type: ADME, Microsome
Conditions: read-out: Stabilty
Assay endpoint: remaining at 1 h, 1 µM

Kindly note the recorded remaining at 1 h, 1 µM for `Cc1ccc(NC(=O)c2ccc(C)c(C(F)(F)F)c2)cc1C#Cc1nn([C@H]2CC[C@H](O)CC2)c2ncnc(N)c12` , which is > 90%

###

Test system: MDA-MB-231
Experiment: Antiproliferative activity against human MDA-MB-231 cells assessed as reduction in cell viability incubated for 72 hrs by MTT assay
Type: functional, cell-based
Settings: MDA-MB-231, 72 h
Would you kindly list log10 of IC50 for each of these compounds?
Values reflect log10 of reported IC50 (nM).

Summary for this compound, `Cc1ccc(C(=O)Nc2cccc(C(F)(F)F)c2)cc1C#Cc1nn(C2CCN(C)CC2)c2ncnc(N)c12` : log10 of IC50 is 0.95

Reported log10 of IC50 of `Cc1ccc(NC(=O)c2cccc(F)c2)cc1C#Cc1nn(C2CCN(C)CC2)c2ncnc(N)c12` : 2.91

// log10 of IC50 lookup, compound = `Cc1ccc(NC(=O)c2ccc(Cl)c(C(F)(F)F)c2)cc1C#Cc1nn(C2CCN(C)CC2)c2ncnc(N)c12` , result: 1.49

Notebook: `Cc1ccc(NC(=O)c2cc(C(C)(C)C)nn2C)cc1C#Cc1nn(C2CCN(C)CC2)c2ncnc(N)c12` , log10 of IC50 read as 2.51

log10 of IC50 in this record for `COc1ccc(C(=O)Nc2ccc(C)c(C#Cc3nn(C4CCN(C)CC4)c4ncnc(N)c34)c2)cc1C(F)(F)F` : 1.38

For this compound ( `Cc1ccc(NC(=O)c2ccnc(C(F)(F)F)c2)cc1C#Cc1nn(C2CCN(C)CC2)c2ncnc(N)c12` ), measured log10 of IC50 is 2.45

The recorded log10 of IC50 for `Cc1ccc(NC(=O)c2ccc(Cl)c(C(F)(F)F)c2)cc1C#Cc1nn([C@H]2CC[C@H](O)CC2)c2ncnc(N)c12` is 1.20

According to the records, this compound `Cc1ccc(NC(=O)c2ccc(F)c(C(F)(F)F)c2)cc1C#Cc1nn(C2CCN(C)CC2)c2ncnc(N)c12` displays log10 of IC50 of 2.72

# log10 of IC50 of `Cc1ccc(NC(=O)c2cc(C(F)(F)F)ccc2F)cc1C#Cc1nn(C2CCN(C)CC2)c2ncnc(N)c12` = 2.30

Entry under test: `Cc1ccc(C(=O)Nc2cccc(C(F)(F)F)c2)cc1C#Cc1nn(CC2CCN(C)CC2)c2ncnc(N)c12` . Its log10 of IC50 was 1.85

Measured log10 of IC50, `CCn1nc(C#Cc2cc(C(=O)Nc3cccc(C(F)(F)F)c3)ccc2C)c2c(N)ncnc21` : 2.56

Notebook: `Cc1ccc(NC(=O)c2ccc(C)c(C(F)(F)F)c2)cc1C#Cc1nn(C[C@H](C)CO)c2ncnc(N)c12` , log10 of IC50 read as 1.63

Briefly, log10 of IC50 measured for `Cc1ccc(NC(=O)c2ccc(Cl)cc2)cc1C#Cc1nn(C2CCN(C)CC2)c2ncnc(N)c12` : 1.52

log10 of IC50 in this record for Cc1ccc(C(=O)Nc2cccc(C(F)(F)F)c2)cc1C#Cc1nn(CC2CCN(C)C2)c2ncnc(N)c12 (stereo not drawn) : 1.61

Lab book: log10 of IC50 of `Cc1ccc(C(=O)Nc2cccc(C(F)(F)F)c2)cc1C#Cc1nn([C@@H]2CCN(C)C2)c2ncnc(N)c12` noted as 1.11

// field: log10 of IC50; key: `Cc1ccc(NC(=O)c2cccc(C(C)(C)C)c2)cc1C#Cc1nn(C2CCN(C)CC2)c2ncnc(N)c12` ; value = 1.77

For `Cc1ccc(NC(=O)c2cncc(C(F)(F)F)c2)cc1C#Cc1nn(C2CCN(C)CC2)c2ncnc(N)c12` the compound record lists log10 of IC50 as 2.22

Reported log10 of IC50 of `Cc1ccc(NC(=O)c2cccc(OC(F)(F)F)c2)cc1C#Cc1nn(C2CCN(C)CC2)c2ncnc(N)c12` : 1.88

log10 of IC50 in this record for `Cc1ccc(NC(=O)c2cccc(C(F)(F)F)c2)cc1C#Cc1nn(C[C@@H](C)CO)c2ncnc(N)c12` : 1.23

Entry under test: `CN1CCC(n2nc(C#Cc3cccc(C(=O)Nc4cccc(C(F)(F)F)c4)c3)c3c(N)ncnc32)CC1` . Its log10 of IC50 was 3.23

Data point: `Cc1ccc(NC(=O)c2ccc(C)c(C(F)(F)F)c2)cc1C#Cc1nn(C2CCN(C)CC2)c2ncnc(N)c12` ; log10 of IC50 = 1.64

For reference, reported log10 of IC50 for `Cc1ccc(NC(=O)c2ccc(C)c(C(F)(F)F)c2)cc1C#Cc1nn([C@H]2CC[C@H](O)CC2)c2ncnc(N)c12` stands at 1.48

get_value(item= `CN1CCC(n2nc(C#Cc3cc(C(=O)Nc4cccc(C(F)(F)F)c4)ccc3Cl)c3c(N)ncnc32)CC1` , readout=log10 of IC50) returns 2.87

log10 of IC50 for `Cc1ccc(NC(=O)c2cc(C(C)(C)C)on2)cc1C#Cc1nn(C2CCN(C)CC2)c2ncnc(N)c12` is 2.27

compound `Cc1ccc(NC(=O)c2cccc(C(F)(F)F)c2F)cc1C#Cc1nn(C2CCN(C)CC2)c2ncnc(N)c12` , log10 of IC50 observed: 2.47

// log10 of IC50 lookup, compound = `Cc1ccc(NC(=O)c2cccc(C(F)(F)F)c2)cc1C#Cc1nn(C2CCN(C)CC2)c2ncnc(N)c12` , result: 1.11

According to the records, this compound `Cc1ccc(NC(=O)c2cc(C(F)(F)F)cc(C(F)(F)F)c2)cc1C#Cc1nn(C2CCN(C)CC2)c2ncnc(N)c12` displays log10 of IC50 of 1.71

Record `CN1CCC(n2nc(C#Cc3cccc(NC(=O)Nc4cccc(C(F)(F)F)c4)c3)c3c(N)ncnc32)CC1` , field log10 of IC50: 3.13

Item: `Cc1ccc(NC(=O)c2ccc(C(F)(F)F)cc2)cc1C#Cc1nn(C2CCN(C)CC2)c2ncnc(N)c12` | log10 of IC50: 2.93

Data point: `Cc1ccc(NC(=O)c2cc(C(F)(F)F)cc(Cl)c2F)cc1C#Cc1nn(C2CCN(C)CC2)c2ncnc(N)c12` ; log10 of IC50 = 3.27

// log10 of IC50 value for `Cc1ccc(NC(=O)c2cc(Cl)cc(C(F)(F)F)c2)cc1C#Cc1nn(C2CCN(C)CC2)c2ncnc(N)c12` : 1.93

The value of log10 of IC50 measured for the compound `COc1cccc(C(=O)Nc2ccc(C)c(C#Cc3nn(C4CCN(C)CC4)c4ncnc(N)c34)c2)c1` turned out to be 2.00

// log10 of IC50 value for `Cc1ccc(NC(=O)c2cccc(C(F)(F)F)n2)cc1C#Cc1nn(C2CCN(C)CC2)c2ncnc(N)c12` : 2.71

Each recorded value in this set is attributed to ChEMBL document CHEMBL4765233.
